SYSTEM UNDER TEST: Thyrotropin receptor (Homo sapiens)
METHOD NOTES: qHTS for antagonists of the Thyroid Stimulation Hormone Receptor: Hit Validation in Primary Screen; note: nearly all actives have a fitted effect of over 80% in size
EXPERIMENTAL CONTEXT: TSHR-expressing cells, cAMP antagonist mode; series mostly up to 58 µM
Among all 1,300 compounds or so, about 380 (29%) were called active. About 37% were inconclusive and are not listed. Calls come from the whole dose curve; as a rule, active = well fitted inhibition curve with a large enough effect; inconclusive = small, poorly fitted or top-dose-only effect; inactive = flat fitted curve, though single readings scatter. Some of the results follow.
Respond using exactly one of the listed classes: active, inactive

Would you please look over these solved cases?
COc1ccc(CCNC2=C(Cl)C(=O)N(CCc3ccccc3)C2=O)cc1OC    active
COc1ccc(CCNC2=C(Cl)C(=O)N(CCc3ccc(OC)c(OC)c3)C2=O)cc1OC    active
Cc1c(C(=O)OC/C(O)=C(\C#N)c2nc3ccccc3[nH]2)oc2ccc(Br)cc12    inactive
CSc1nc(N)nc(SCC(=O)Nc2ccc(Cl)cc2)c1C#N    active
Cc1cc(C#N)c(SCC(N)=O)nc1-c1ccc(F)cc1    inactive

# outcome recorded in this test, key = CCc1ccc(N/C(SCc2cccc(F)c2)=C(/C#N)C(=O)NCc2ccco2)cc1
inactive

# outcome recorded in this test, key = COc1cc(OC)c(NC(=O)Cn2cnc3sc(C)c(S(=O)(=O)N4CCOCC4)c3c2=O)cc1Cl
inactive

# outcome recorded in this test, key = O=C1OC(CC(=O)N(Cc2nnc(-c3ccc(Cl)cc3)o2)C2CC2)c2ccccc21 (stereo unspecified)
inactive

# outcome recorded in this test, key = Cc1ccc(C(=O)Nc2ccc(Br)c(C(F)(F)F)c2)cc1
active

# outcome recorded in this test, key = CCc1nn(CC(=O)N2CCCCCC2)c(=O)c2cc3ccccc3n12
inactive

# outcome recorded in this test, key = O=C(Cn1ncc(Cl)c(Cl)c1=O)N1CCN(S(=O)(=O)c2ccc3ccccc3c2)CC1
active

# outcome recorded in this test, key = CC(C)NC(=O)COc1coc(CN2CCN(c3ccccc3F)CC2)cc1=O
inactive

# outcome recorded in this test, key = Cc1cc(C)c2oc(C(=O)Nc3ccc(S(=O)(=O)Nc4nccc(C)n4)cc3)cc(=O)c2c1
inactive

# outcome recorded in this test, key = COc1ccccc1N1CCN(c2nc(C)nc3c2oc2ccccc23)CC1
active

# outcome recorded in this test, key = Cn1c(=O)c([N+](=O)[O-])c(Cl)c2ccccc21
active

# outcome recorded in this test, key = COc1ccc(-c2sc3ccc(N4CCOCC4)cc3c2C#CCO)cc1
active

# outcome recorded in this test, key = Cc1cc(C)c(C2=NOC3C4CCC(C4)C23)c(C)c1 (stereo unspecified)
inactive

# outcome recorded in this test, key = Cc1ccc(S(=O)(=O)N2CCN(C(=O)Cc3ccsc3)CC2)c(C)c1
inactive

From: PubChem BioAssay AID602292
